# measurement-context: 343.2 K; 101.33 kPa; Liquid; Cone and plate viscometry
measurement-name: viscosity (mPa·s)

// worked examples, viscosity included
{"columns": ["molecule", "viscosity, mPa·s"],
 "data": [
  ["CCCCCCCC(=O)[O-].CCCCCCCCCCCCCC[P+](CCCCCC)(CCCCCC)CCCCCC [trihexyl(tetradecyl)phosphonium octanoate]", 52.65],
  ["CC(=O)[O-].CCCCCCCCCCCCCC[P+](CCCCCC)(CCCCCC)CCCCCC [trihexyl(tetradecyl)phosphonium acetate]", 28.55],
  ["CCCCCC(=O)[O-].CCCCCCCCCCCCCC[P+](CCCCCC)(CCCCCC)CCCCCC [trihexyl(tetradecyl)phosphonium hexanoate]", 46.46]
]}

(I) CCCC(=O)[O-].CCCCCCCCCCCCCC[P+](CCCCCC)(CCCCCC)CCCCCC [trihexyl(tetradecyl)phosphonium butyrate]
(II) CCCCCCCCCC(=O)[O-].CCCCCCCCCCCCCC[P+](CCCCCC)(CCCCCC)CCCCCC [trihexyltetradecylphosphonium decanoate]
Ask: Identify the entry with the smaller viscosity: I or II . Reply briefly: the label of your chosen item.
Reply: I

====

# measurement-notes: molar heat capacity at constant pressure
# measurement-context: 328.15 K; 101.33 kPa; Liquid; Small sample (50 mg) DSC
measurement-name: molar heat capacity at constant pressure (J/K/mol)

{"columns": ["molecule", "number"],
 "data": [
  ["CC(=O)[O-].CCCCCCCCCCCCCC[P+](CCCCCC)(CCCCCC)CCCCCC [trihexyl(tetradecyl)phosphonium acetate]", 1128.1],
  ["CCCCCC(=O)[O-].CCCCCCCCCCCCCC[P+](CCCCCC)(CCCCCC)CCCCCC [trihexyl(tetradecyl)phosphonium hexanoate]", 1182.4],
  ["CCCCCCCC(=O)[O-].CCCCCCCCCCCCCC[P+](CCCCCC)(CCCCCC)CCCCCC [trihexyl(tetradecyl)phosphonium octanoate]", 1199.6],
  ["CCCC(=O)[O-].CCCCCCCCCCCCCC[P+](CCCCCC)(CCCCCC)CCCCCC [trihexyl(tetradecyl)phosphonium butyrate]", 1148.2],
  ["CCCCCCCCCC(=O)[O-].CCCCCCCCCCCCCC[P+](CCCCCC)(CCCCCC)CCCCCC [trihexyltetradecylphosphonium decanoate]", 1238.2]
]}

====

# measurement-context: 328.2 K; 101.33 kPa; Liquid; Cone and plate viscometry
measurement-name: viscosity (mPa·s)

// worked examples, viscosity included
{"columns": ["molecule", "number"],
 "data": [
  ["CCCCCC(=O)[O-].CCCCCCCCCCCCCC[P+](CCCCCC)(CCCCCC)CCCCCC [trihexyl(tetradecyl)phosphonium hexanoate]", 80.79],
  ["CCCC(=O)[O-].CCCCCCCCCCCCCC[P+](CCCCCC)(CCCCCC)CCCCCC [trihexyl(tetradecyl)phosphonium butyrate]", 60.22],
  ["CCCCCCCCCC(=O)[O-].CCCCCCCCCCCCCC[P+](CCCCCC)(CCCCCC)CCCCCC [trihexyltetradecylphosphonium decanoate]", 99.78]
]}

(I) CCCCCCCC(=O)[O-].CCCCCCCCCCCCCC[P+](CCCCCC)(CCCCCC)CCCCCC [trihexyl(tetradecyl)phosphonium octanoate]
(II) CC(=O)[O-].CCCCCCCCCCCCCC[P+](CCCCCC)(CCCCCC)CCCCCC [trihexyl(tetradecyl)phosphonium acetate]
Ask: Identify the entry with the smaller viscosity: I or II . Reply briefly: the label of your chosen item.
Reply: II
(II: 48.52 mPa·s, I: 91.42 mPa·s)
